assay: PK/PD profile, 1 mg/kg oral for 7 consecutive days; assay type: in vivo; conditions: cynomolgus monkey, plasma, po, 1 mg/kg, cynomolgus monkeys, oral 1 mg/kg daily, Day 7; read-out: AUC0-24
property_label: AUC(0-t) (ng·h/mL)
// note: answer is a bare numeric in ng·h/mL

Reported AUC(0-t) ( Cn1cc(C(=O)O)c2ccc(N3CCC(OCc4c(-c5c(Cl)cccc5Cl)noc4C4CC4)CC3)cc21 [Compound 1] ) = 858

====

assay: Pharmacokinetics assay, monkey; format: in vivo, cynomolgus monkeys; conditions: plasma, iv; Cynomolgus Monkey, intravenously 0.3 mg/kg; read-out: Vdss
property_label: Vd (L/kg)
Numeric answer only, unit L/kg assumed.

The recorded Vd for Cn1cc(C(=O)O)c2ccc(N3CCC(OCc4c(-c5c(Cl)cccc5Cl)noc4C4CC4)CC3)cc21 is 0.6
